The values you see were collected from the kinase profiling compilation of Christmann-Franck et al. (2016).

assayTarget: SIK1 (human) (UniProt P57059)
Sequence (P57059 whole entry, looked up): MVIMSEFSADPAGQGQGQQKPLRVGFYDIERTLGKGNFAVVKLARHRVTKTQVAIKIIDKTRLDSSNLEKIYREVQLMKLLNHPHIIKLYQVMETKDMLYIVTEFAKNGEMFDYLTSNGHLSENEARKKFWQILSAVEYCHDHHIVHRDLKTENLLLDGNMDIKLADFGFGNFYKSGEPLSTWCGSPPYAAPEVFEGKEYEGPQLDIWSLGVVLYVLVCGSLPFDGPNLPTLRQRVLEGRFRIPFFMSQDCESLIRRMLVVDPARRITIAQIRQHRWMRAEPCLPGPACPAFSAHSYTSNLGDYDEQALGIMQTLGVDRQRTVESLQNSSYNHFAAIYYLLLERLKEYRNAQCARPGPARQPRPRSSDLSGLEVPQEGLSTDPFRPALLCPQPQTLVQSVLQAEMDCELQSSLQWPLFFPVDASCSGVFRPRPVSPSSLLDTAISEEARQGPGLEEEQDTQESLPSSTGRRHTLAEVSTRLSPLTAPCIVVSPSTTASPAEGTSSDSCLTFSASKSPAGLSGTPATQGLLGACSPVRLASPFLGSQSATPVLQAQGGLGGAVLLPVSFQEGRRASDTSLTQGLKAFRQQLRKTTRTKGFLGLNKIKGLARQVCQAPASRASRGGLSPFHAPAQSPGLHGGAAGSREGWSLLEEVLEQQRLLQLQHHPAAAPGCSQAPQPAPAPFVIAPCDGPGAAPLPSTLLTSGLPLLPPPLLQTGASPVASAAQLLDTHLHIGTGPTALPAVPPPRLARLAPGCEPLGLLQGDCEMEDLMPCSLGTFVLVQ
experimentalDetails: KINOMEscan competition binding
runParameters: compound 10.0 µM
reportedMetric: kinase still bound, per cent of control (%)

INSERT INTO assay_data (compound, assaytarget, numericvalue) VALUES
  ('COC(=O)Nc1ccc(-c2nc(N3CCOCC3)c3cnn(C4CCN(C(=O)OC)CC4)c3n2)cc1', 'SIK1 (human) (UniProt P57059)', 100),
  ('CC(C)n1nc(-c2cc3cc(O)ccc3[nH]2)c2c(N)ncnc21', 'SIK1 (human) (UniProt P57059)', 13),
  ('CCC(=O)N1CCN(c2ccc(-n3c(=O)ccc4cnc5ccc(-c6cnc7ccccc7c6)cc5c43)cc2C(F)(F)F)CC1', 'SIK1 (human) (UniProt P57059)', 80),
  ('COc1ccc(-c2ccc3c(N4CCOCC4)nc(N4C[C@@H](C)O[C@@H](C)C4)nc3n2)cc1CO', 'SIK1 (human) (UniProt P57059)', 90);
